species: Homo sapiens; assay: Selectivity index, ratio of IC50 for displacement of [125I]-ghrelin from human GHS-R1a stably expressed in HEK cell membrane measured after 60 mins by gamma counter method to EC50 for agonist activity at human GPR81 overexpressed in CHO cells assessed as inhibition of forskolin-stimulated cAMP production; type: cell membranes
metric_name: Ratio IC50/EC50

In [3]: df
Out[3]:
                              record_smiles  value_observed
0  CCOc1cc(Cl)c(C(=O)Nc2nc3ccc(S(=O)(=O)CCCN4CCN(C)CC4)cc3s2)cc1N1CCO[C@H](C)C1            > 80
1  CCOc1cc(Cl)c(C(=O)Nc2nc3ccccc3s2)cc1N1CCOCC1            > 80
2  CCOc1cc(Cl)c(C(=O)Nc2nc3ccc(CN4CCN(C)CC4)cc3s2)cc1N1CCOCC1            > 80
3  CCOc1cc(Cl)c(C(=O)Nc2nc3ccc(S(=O)(=O)CCCN4CCN(C)CC4)cc3s2)cc1N1C[C@H](C)O[C@@H](C)C1            > 80
